These data points were gathered from patent US20240247080A1.

Form field: EC50 (one value per entry).
EXPERIMENTAL_TARGET: hGLP1R (Homo sapiens, UniProt P43220)
Construct: expressed in transfected cells; host or cells: HEK-293 cells carrying a CRE-luciferase reporter gene
Sequence (P43220 24-463): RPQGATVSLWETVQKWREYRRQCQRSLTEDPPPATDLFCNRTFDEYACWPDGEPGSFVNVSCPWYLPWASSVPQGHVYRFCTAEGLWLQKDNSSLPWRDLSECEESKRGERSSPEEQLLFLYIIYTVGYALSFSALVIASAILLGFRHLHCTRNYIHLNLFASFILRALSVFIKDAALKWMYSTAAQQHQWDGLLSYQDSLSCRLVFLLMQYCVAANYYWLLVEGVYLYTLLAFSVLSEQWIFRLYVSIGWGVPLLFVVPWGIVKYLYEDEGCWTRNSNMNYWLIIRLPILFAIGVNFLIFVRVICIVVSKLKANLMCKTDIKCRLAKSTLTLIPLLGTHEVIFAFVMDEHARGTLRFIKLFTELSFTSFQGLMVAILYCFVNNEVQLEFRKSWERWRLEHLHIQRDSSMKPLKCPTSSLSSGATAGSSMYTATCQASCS
TEST_METHOD_NOTES: hGLP1R CreLuc reporter gene assay in 0.5% and 100% plasma
Assay type: cell-based
MEASUREMENT_CONTEXT: CreLuc reporter gene assay, 100% human plasma; read-out: hGLP1R 100% hP
Starred links: 1 amine or outer side, 2 acyl side, 3 side chain; linkers in the order of their positions; H or OH if unused. Non-standard residues stand in square brackets, D forms with d. Groups on a side chain read outwards from the residue. *: point of attachment. C20 diacid = O=C(O)CCCCCCCCCCCCCCCCCCC(=O)*; C18 diacid = O=C(O)CCCCCCCCCCCCCCCCC(=O)*; γGlu = O=C(O)[C@H](CCC(=O)[*:2])N[*:1]; εLys = N[C@@H](CCCCN[*:1])C(=O)[*:2]; Aib = CC(C)(N)C(=O)O
Give just the numeric value; nM need not be written.

INSERT INTO results (substance, readout_type, observed) VALUES
  ('H-Y[Aib]EGTFTSDYSI[Aib]LEKQAQ[Aib]AFVQWLIK([γGlu-γGlu-γGlu-γGlu-γGlu-γGlu-C18 diacid])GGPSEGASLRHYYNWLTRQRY-NH2 [Compound 252]', 'EC50', 2.59),
  ('H-Y[Aib]EGTFTSDYSI[Aib]LEKQAQ[Aib]AFVEWLIK([εLys-γGlu-γGlu-γGlu-γGlu-γGlu-γGlu-C20 diacid])GGPSSGADLRHYLNWLTRQRY-NH2 [Compound 72]', 'EC50', 2.87),
  ('H-Y[Aib]EGTFTSDYSI[Aib]LEKQAQ[Aib]AFVEWLIK([εLys-γGlu-γGlu-γGlu-γGlu-γGlu-γGlu-C20 diacid])GGPSEYVSLRHYYNWLTRQRY-NH2 [Compound 217]', 'EC50', 17.2);

So what does the record say about EC50 for H-Y[Aib]EGTFTSDYSI[Aib]LEKQAQ[Aib]AFIEWLIK([γGlu-γGlu-γGlu-γGlu-C20 diacid])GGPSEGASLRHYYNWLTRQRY-NH2 [Compound 283] ? 3.86

So what's the measured EC50 for this one? H-Y[Aib]EGTFTSDYSI[Aib]LEKQAQ[Aib]AFVEWLIK([εLys-γGlu-γGlu-γGlu-γGlu-γGlu-C18 diacid])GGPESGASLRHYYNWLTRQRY-NH2 [Compound 152] 4.24
